Measured values drawn from PubChem BioAssay for this set.

# EXPERIMENTAL DETAILS: ovarian cancer cell viability with rucaparib, profiling panel, oncology-focused library, rucaparib conditional (AID 1508598)
# MEASUREMENT CONDITIONS: patient-derived ovarian cancer cells, CellTiter-Glo viability, 144 h; at 0.0781 µM; OCI-P5x cells; with rucaparib 20 µM; stronger effect = lower value; 100% = cells with rucaparib alone
MEASUREMENT LABEL: viability (%)

[[record]]
molecule = "CC(C)C[C@H](NC(=O)[C@H](Cc1ccccc1)NC(=O)c1cnccn1)B(O)O"
measurement_label = "viability"
endpoint_value = 1.94

[[record]]
molecule = "CNC(=O)c1ccccc1Sc1ccc2c(/C=C/c3ccccn3)n[nH]c2c1"
measurement_label = "viability"
endpoint_value = 126

[[record]]
molecule = "Cc1cc(O)c2c(c1)C(=O)c1cccc(O)c1C2=O"
measurement_label = "viability"
endpoint_value = 105

[[record]]
molecule = "CC/C(=C(\\c1ccccc1)c1ccc(OCCN(C)C)cc1)c1ccccc1"
measurement_label = "viability"
endpoint_value = 97

[[record]]
molecule = "C#Cc1cccc(Nc2ncnc3cc(OCCOC)c(OCCOC)cc23)c1"
measurement_label = "viability"
endpoint_value = 135

[[record]]
molecule = "CN(C)c1nc(N(C)C)nc(N(C)C)n1"
measurement_label = "viability"
endpoint_value = 103

[[record]]
molecule = "O=C(NOCC1CC1)c1ccc(F)c(F)c1Nc1ccc(I)cc1Cl"
measurement_label = "viability"
endpoint_value = 124

[[record]]
molecule = "O=c1[nH]c(=O)n([C@H]2CCCO2)cc1F"
measurement_label = "viability"
endpoint_value = 106

[[record]]
molecule = "O=C(CCc1ccc(O)cc1)c1c(O)cc(O)cc1O"
measurement_label = "viability"
endpoint_value = 104

[[record]]
molecule = "FC(F)c1nc2ccccc2n1-c1nc(N2CCOCC2)nc(N2CCOCC2)n1"
measurement_label = "viability"
endpoint_value = 89.9

[[record]]
molecule = "Nc1cccc2c1CN(C1CCC(=O)NC1=O)C2=O (stereo unspecified)"
measurement_label = "viability"
endpoint_value = 133


* * *

# EXPERIMENTAL DETAILS: suppressors of polyQ aggregation in yeast, 75Q-TubU reporter (AID 1593)
# MEASUREMENT CONDITIONS: Yeast 75Q polyglutamine aggregation reporter
MEASUREMENT LABEL: score

[[record]]
compound = "NCCc1cnc[nH]1"
endpoint_value = 1.16

[[record]]
compound = "CC[C@H]1OC(=O)[C@H](C)[C@@H](O[C@H]2C[C@@](C)(OC)[C@@H](O)[C@H](C)O2)[C@H](C)[C@@H](O[C@@H]2O[C@H](C)C[C@H](N(C)C)[C@H]2O)[C@](C)(O)C[C@@H](C)/C(=N\\OCOCCOC)[C@H](C)[C@@H](O)[C@]1(C)O"
endpoint_value = 0.81

[[record]]
compound = "CC(C)(C)CC(C)(C)c1ccc(OCCOCC[N+](C)(C)Cc2ccccc2)cc1"
endpoint_value = -0.06

[[record]]
compound = "CN1C[C@H](C(=O)N[C@]2(C)O[C@@]3(O)[C@@H]4CCCN4C(=O)[C@H](Cc4ccccc4)N3C2=O)C[C@@H]2c3cccc4[nH]cc(c34)C[C@H]21"
endpoint_value = 1.21

[[record]]
compound = "CC(=O)c1c(O)c(C)c(O)c2c1OC1=CC(=O)C(C(C)=O)C(=O)C12C (stereo not drawn)"
endpoint_value = 0.79

[[record]]
compound = "O=C(O)c1cc(=O)c2ccccc2[nH]1"
endpoint_value = 1.02

[[record]]
compound = "CC12CCC3c4ccc(OCc5ccccc5)cc4CCC3C1C[C@@H](O)[C@@H]2O (stereo partly drawn)"
endpoint_value = -1.62

[[record]]
compound = "COc1ccc([C@@H]2CC(=O)c3c(O)cc(O)cc3O2)cc1O"
endpoint_value = 0.56

